Biological target: T1, mouse PD-1 on transfected 293F cells (mouse, UniProt Q02242 25-288)
T1 construct: whole, on cells; also called cell surface mouse PD-1
T1 sequence (looked up): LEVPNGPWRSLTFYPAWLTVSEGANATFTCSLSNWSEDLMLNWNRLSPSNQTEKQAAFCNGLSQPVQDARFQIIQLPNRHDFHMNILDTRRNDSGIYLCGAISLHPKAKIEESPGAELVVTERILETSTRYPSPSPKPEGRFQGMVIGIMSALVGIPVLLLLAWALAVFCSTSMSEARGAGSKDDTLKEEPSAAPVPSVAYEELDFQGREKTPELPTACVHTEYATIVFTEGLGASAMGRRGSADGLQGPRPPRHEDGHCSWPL
Test: flow cytometry on 293F cells expressing mouse PD-1, quantitative beads
recorded.metric: pKd
Friendly reminder that pKd comes from taking -log10 of the concentration in mol/L.

Solved cases below.
binder	pKd
1H6 (antibody, human IgG4, V domains shown) VH: QVQLVQSGAEVKKPGSSVKVSCKASGFTFTTYYISWVRQAPGQGLEYLGYINMGSGGTNYNEKFKGRVTITADKSTSTAYMELSSLRSEDTAVYYCAILGYFDYWGQGTMVTVSS VL: DVVMTQSPLSLPVTLGQPASISCRSSQSLLDSDGGTYLYWFQQRPGQSPRRLIYLVSTLGSGVPDRFSGSGSGTDFTLKISRVEAEDVGVYYCMQLTHWPYTFGQGTKLEIK	7.27
2C2 (antibody, human IgG4, V domains shown) VH: QVQLVQSGAEVKKPGSSVKVSCKASGFTFTTYYISWVRQAPGQGLEYLGYINMGSGGTNYNEKFKGRVTITADKSTSTAYMELSSLRSEDTAVYYCAIIGYFDYWGQGTMVTVSS VL: DVVMTQSPLSLPVTLGQPASISCRSSQSLLDSDGATYLYWFQQRPGQSPRRLIYLVSTLGSGVPDRFSGSGSGTDFTLKISRVEAEDVGVYYCMQLTHWPYTFGQGTKLEIK	7.76

Q: Give me measured pKd, please, for this binder: 2E5 (antibody, human IgG4, V domains shown) VH: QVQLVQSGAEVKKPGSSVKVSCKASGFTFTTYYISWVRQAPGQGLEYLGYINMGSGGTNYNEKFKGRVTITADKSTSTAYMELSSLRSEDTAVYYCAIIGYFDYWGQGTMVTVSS VL: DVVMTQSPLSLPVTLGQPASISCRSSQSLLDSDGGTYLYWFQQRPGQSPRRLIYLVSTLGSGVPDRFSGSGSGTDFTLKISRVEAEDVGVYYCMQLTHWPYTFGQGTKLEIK
Ans: 7.54

Q: Give me measured pKd, please, for this binder: 2G4 (antibody, human IgG4, V domains shown) VH: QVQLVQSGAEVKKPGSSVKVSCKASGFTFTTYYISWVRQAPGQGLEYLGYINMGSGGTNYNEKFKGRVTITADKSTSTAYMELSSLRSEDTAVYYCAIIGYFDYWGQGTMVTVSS VL: DVVMTQSPLSLPVTLGQPASISCRSSQSLLDSDGSTYLYWFQQRPGQSPRRLIYLVSTLGSGVPDRFSGSGSGTDFTLKISRVEAEDVGVYYCMQLTHWPYTFGQGTKLEIK
Ans: 7.45

Values compiled from patent US20230014722A1.
